Task for the reader: assign each of the following molecules its reported pIC50.
- tested_on: OCT1 (Homo sapiens, UniProt O15245)
- Sequence (O15245 whole entry): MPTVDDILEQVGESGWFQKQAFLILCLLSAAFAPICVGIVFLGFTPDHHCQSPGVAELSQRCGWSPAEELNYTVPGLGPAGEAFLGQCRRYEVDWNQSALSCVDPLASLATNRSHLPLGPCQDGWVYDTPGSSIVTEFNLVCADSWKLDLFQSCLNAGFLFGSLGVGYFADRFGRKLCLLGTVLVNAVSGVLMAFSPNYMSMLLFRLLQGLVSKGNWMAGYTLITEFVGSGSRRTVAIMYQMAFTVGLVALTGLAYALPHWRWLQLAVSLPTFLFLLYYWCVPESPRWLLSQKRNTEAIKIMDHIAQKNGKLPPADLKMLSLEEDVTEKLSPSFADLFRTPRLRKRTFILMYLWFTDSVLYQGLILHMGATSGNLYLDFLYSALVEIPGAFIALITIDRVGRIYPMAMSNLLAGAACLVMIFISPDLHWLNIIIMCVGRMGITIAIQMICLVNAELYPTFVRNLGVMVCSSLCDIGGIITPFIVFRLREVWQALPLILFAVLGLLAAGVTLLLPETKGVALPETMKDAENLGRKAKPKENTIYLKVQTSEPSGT
- protocol_details: Inhibition of OCT1-mediated [3H]MPP+ uptake in HEK293-OCT1 cells
pIC50: −log10 of the molar value.

{"columns": ["molecule", "tested_on", "property", "measurement"],
 "data": [
  ["CC(C)=CCC[C@](C)(O)[C@H]1CC[C@]2(C)[C@@H]1[C@H](O)C[C@@H]1[C@@]3(C)CC[C@H](O)C(C)(C)[C@@H]3[C@@H](O[C@@H]3O[C@H](CO)[C@@H](O)[C@H](O)[C@H]3O)C[C@]12C [Rh1, ginsenoside Rh1]", "OCT1 (Homo sapiens, UniProt O15245)", "pIC50", "< 4.00"]
]}

Kindly give each listed record's pIC50.
1. CC(C)=CCC[C@](C)(O[C@@H]1O[C@H](CO)[C@@H](O)[C@H](O)[C@H]1O)[C@H]1CC[C@]2(C)[C@@H]1[C@H](O)C[C@@H]1[C@@]3(C)CC[C@H](O[C@@H]4O[C@H](CO)[C@@H](O)[C@H](O)[C@H]4O[C@@H]4O[C@H](CO)[C@@H](O)[C@H](O)[C@H]4O)C(C)(C)[C@@H]3CC[C@]12C [Rd, ginsenoside Rd]
2. CC(C)=CCC[C@](C)(O[C@@H]1O[C@H](CO[C@@H]2OC[C@H](O)[C@H](O)[C@H]2O)[C@@H](O)[C@H](O)[C@H]1O)[C@H]1CC[C@]2(C)[C@@H]1[C@H](O)C[C@@H]1[C@@]3(C)CC[C@H](O[C@@H]4O[C@H](CO)[C@@H](O)[C@H](O)[C@H]4O[C@@H]4O[C@H](CO)[C@@H](O)[C@H](O)[C@H]4O)C(C)(C)[C@@H]3CC[C@]12C [Rb2, ginsenoside Rb2]

Given back:
1: < 4.00; 2: < 4.00
